Measured values drawn from PubChem BioAssay (NCI) for this set.

# Test system: KM12 colon
# ASSAY_PROTOCOL: NCI tumour cell line growth inhibition, 48 h; in the data active = GI50 below about 0.43 µM; inactive = the rest
Returns: one label drawn from active, inactive

COMPOUND	SYSTEM	CLASS_LABEL
CC/C=C\C=C/C(=O)N/C=C/CC1Cc2cccc(O)c2C(=O)O1 (stereo not drawn)	KM12 colon	inactive

Recorded test call requested for `COc1ccc2nc3cc([N+](=O)[O-])ccc3c(NCCCCCN(C)C)c2c1`
inactive

Please indicate how the test categorized `CCCCN1CCN(c2ccc3nc(-c4ccc5nc(-c6ccc(C(F)(F)F)cc6)[nH]c5c4)[nH]c3c2)CC1` .
inactive

Just curious, what result did `C=CCc1c2c(c(OC)c3ccoc13)C(=O)/C(=C/c1ccccc1OC)O2` get here?
inactive

// outcome(item) with item = C=C1C(O)C2(O)OCC34C(CC5C(C)=CC(=O)C(O)C5(C)C23)OC(=O)C(OC(=O)C/C=C(\C)CCCCC)C14 (stereo not drawn)
active

For CCCCCn1c(=N)n(CC(O)COc2cccc(C)c2)c2ccccc21 (stereo not drawn) , which call appears in the assay record?
inactive

How did this test come out for `CCN(Cc1ccc(F)c(F)c1)c1ccc(CO)c(Cl)c1` ?
inactive

// return assay outcome for COc1ccc(N2C(C)=C(C#N)C34C(=O)N(c5ccccc5)C(=O)C3=C(O)C=CC24O)cc1 (stereo not drawn)
inactive
